Test system: Sinorhizobium meliloti AK631
Experiment: CFU determination of Sinorhizobium meliloti
Settings: 20 μg/ml, 1 hr

substance: NCR247: cationic NCR peptide (RNGCIVDPRCPYQQCRRPLYCRRR; Peptide derived from Medicago truncatula)
CFU (colony/ml): 0
--
substance: NCR057: cationic NCR peptide (RPVSCKDHYDCRRKVKIVGCIFPQEKPMCINSMCTCIREIVP; Peptide derived from Medicago truncatula)
CFU (colony/ml): 9800000
--
substance: NCR055: cationic NCR peptide (VNDCIRIHCKDDFDCIENRLQVGCRLQREKPRCVNLVCRCLRR; Peptide derived from Medicago truncatula)
CFU (colony/ml): 1800
--
substance: NCR224: anionic NCR peptide (KDLPFNICEKDEDCLEFCAHDKVAKCMLNICFCF; Peptide derived from Medicago truncatula)
CFU (colony/ml): 52900000
--
substance: NCR035: cationic NCR peptide (SFLGTFISSCKRDKDCPKLYGANFRCRKGTCVPPI; Peptide derived from Medicago truncatula)
CFU (colony/ml): 21000

* * *

Test system: Bacillus subtilis
Assay: CFU determination, broad spectrum activity
Format: cell-based
Settings: 50 μg/ml, untreated 10^6
readoutName: CFU

substance: NCR247: cationic NCR peptide (RNGCIVDPRCPYQQCRRPLYCRRR; Peptide derived from Medicago truncatula)
testedSystem: Bacillus subtilis
endpointValue: CFU: 10^6
--
substance: NCR057: cationic NCR peptide (RPVSCKDHYDCRRKVKIVGCIFPQEKPMCINSMCTCIREIVP; Peptide derived from Medicago truncatula)
testedSystem: Bacillus subtilis
endpointValue: CFU: 10^6

* * *

System: Sinorhizobium meliloti AK631
Experiment: CFU determination of Sinorhizobium meliloti
Conditions: 50 μg/ml, 1 hr
readoutName: CFU % (%)

substance: NCR057: cationic NCR peptide (RPVSCKDHYDCRRKVKIVGCIFPQEKPMCINSMCTCIREIVP; Peptide derived from Medicago truncatula)
endpointValue: 68
--
substance: NCR224: anionic NCR peptide (KDLPFNICEKDEDCLEFCAHDKVAKCMLNICFCF; Peptide derived from Medicago truncatula)
endpointValue: 48
--
substance: NCR247: cationic NCR peptide (RNGCIVDPRCPYQQCRRPLYCRRR; Peptide derived from Medicago truncatula)
endpointValue: 0
--
substance: NCR035: cationic NCR peptide (SFLGTFISSCKRDKDCPKLYGANFRCRKGTCVPPI; Peptide derived from Medicago truncatula)
endpointValue: 0
--
substance: NCR055: cationic NCR peptide (VNDCIRIHCKDDFDCIENRLQVGCRLQREKPRCVNLVCRCLRR; Peptide derived from Medicago truncatula)
endpointValue: 0

* * *

System: Curtobacterium, flaccumfaciens
Experiment: CFU determination, broad spectrum activity
Type: cell-based
Conditions: 50 μg/ml, untreated 10^9
readoutName: CFU

substance: NCR057: cationic NCR peptide (RPVSCKDHYDCRRKVKIVGCIFPQEKPMCINSMCTCIREIVP; Peptide derived from Medicago truncatula)
endpointValue: CFU: 0
--
substance: NCR055: cationic NCR peptide (VNDCIRIHCKDDFDCIENRLQVGCRLQREKPRCVNLVCRCLRR; Peptide derived from Medicago truncatula)
endpointValue: CFU: 0
--
substance: NCR247: cationic NCR peptide (RNGCIVDPRCPYQQCRRPLYCRRR; Peptide derived from Medicago truncatula)
endpointValue: CFU: 0

* * *

System: Xanthomonas 2880
Assay: PI staining, broad spectrum activity
Format: cell-based
Conditions: 50 μg/ml

substance: NCR055: cationic NCR peptide (VNDCIRIHCKDDFDCIENRLQVGCRLQREKPRCVNLVCRCLRR; Peptide derived from Medicago truncatula)
PI: PI: 100%
//
substance: NCR035: cationic NCR peptide (SFLGTFISSCKRDKDCPKLYGANFRCRKGTCVPPI; Peptide derived from Medicago truncatula)
PI: PI: 100%
